pKi: −log10 of the molar value.
Below are pKi values measured for Muscarinic acetylcholine receptor M4 (Homo sapiens, UniProt P08173).
measure: pKi

INSERT INTO assay_data (compound, recorded_measurement) VALUES
  ('CCN(CC)CCOC(=O)C(C)(c1ccccc1)c1ccccc1', 8.13),
  ('CCN(CC)CCOC(=O)C(C)(c1ccccc1)C1CCCCC1 (stereo not given)', 7.73),
  ('CN(C)CCCCOC(=O)C(C)(c1ccccc1)C1CCCCC1 (stereo not given)', 7.18),
  ('CN(C)CCCOC(=O)C(C)(c1ccccc1)C1CCCCC1 (stereo not given)', 8.82),
  ('CCN(CC)CCCOC(=O)C(C)(c1ccccc1)C1CCCCC1 (stereo not given)', 8.34);

###

# test-target: Muscarinic acetylcholine receptor M2 (Homo sapiens)
# assay-info: Antimuscarinic potency and subset specificity was characterised by inhibition of the [3H]NMS Binding to Muscarinic acetylcholine receptor M2 subtype
measure: Ki (nM)

INSERT INTO measurements (molecule_smiles, display_unit, recorded_measurement) VALUES
  ('CCN(CC)CCOC(=O)C(C)(c1ccccc1)c1ccccc1', 'nM', 9.3);

###

The compounds listed here are annotated with their Selectivity ratio.
# assay-info: Selectivity index is defined as the ratio of Ki value for m3 receptor / Ki value for M4 receptor
measure: Selectivity ratio

INSERT INTO results (compound, recorded_measurement) VALUES
  ('CCN(CC)CCCOC(=O)C(C)(c1ccccc1)C1CCCCC1 (centres undefined)', 1.2),
  ('CN(C)CCCOC(=O)C(C)(c1ccccc1)C1CCCCC1 (centres undefined)', 0.9),
  ('CCN(CC)CCOC(=O)C(C)(c1ccccc1)C1CCCCC1 (centres undefined)', 1.9),
  ('CCN(CC)CCCCCOC(=O)C(C)(c1ccccc1)C1CCCCC1 (centres undefined)', 1);

###

# test-target: Muscarinic acetylcholine receptor M3 (Homo sapiens, UniProt P20309)
# Sequence (P20309 whole entry): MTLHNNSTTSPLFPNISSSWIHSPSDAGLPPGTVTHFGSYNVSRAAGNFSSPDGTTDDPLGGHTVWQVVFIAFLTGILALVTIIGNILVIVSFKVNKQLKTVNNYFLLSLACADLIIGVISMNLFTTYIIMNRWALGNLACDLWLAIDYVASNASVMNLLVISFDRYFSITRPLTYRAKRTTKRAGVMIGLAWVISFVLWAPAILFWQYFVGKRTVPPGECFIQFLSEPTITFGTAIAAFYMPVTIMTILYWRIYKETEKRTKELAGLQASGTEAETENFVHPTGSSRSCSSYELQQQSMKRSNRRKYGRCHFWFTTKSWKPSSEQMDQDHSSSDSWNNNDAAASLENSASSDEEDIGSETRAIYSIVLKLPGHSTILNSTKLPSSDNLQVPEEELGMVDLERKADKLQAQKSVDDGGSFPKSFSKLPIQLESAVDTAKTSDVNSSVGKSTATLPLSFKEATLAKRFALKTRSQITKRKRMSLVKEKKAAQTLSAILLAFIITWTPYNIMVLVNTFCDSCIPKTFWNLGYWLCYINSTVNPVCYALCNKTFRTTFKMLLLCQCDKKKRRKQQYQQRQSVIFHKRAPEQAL
# assay-info: Antimuscarinic potency and subset specificity was characterised by its inhibition of the [3H]NMS Binding to Muscarinic acetylcholine receptor M3 subtype
pKi: −log10 of the molar value.
Think of 7 as a floor: if pKi stands on it or above, it is 1; beneath it, 0.

INSERT INTO assay_data (compound, category) VALUES
  ('CN(C)CCCOC(=O)C(C)(c1ccccc1)C1CCCCC1 (stereo not given)', 1),
  ('CN(C)CCCCOC(=O)C(C)(c1ccccc1)C1CCCCC1 (stereo not given)', 1),
  ('CCN(CC)CCCCCOC(=O)C(C)(c1ccccc1)C1CCCCC1 (stereo not given)', 0),
  ('CCN(CC)CCCOC(=O)C(C)(c1ccccc1)C1CCCCC1 (stereo not given)', 1);

###

# test-target: UniProt P08172
# Sequence (P08172 whole entry): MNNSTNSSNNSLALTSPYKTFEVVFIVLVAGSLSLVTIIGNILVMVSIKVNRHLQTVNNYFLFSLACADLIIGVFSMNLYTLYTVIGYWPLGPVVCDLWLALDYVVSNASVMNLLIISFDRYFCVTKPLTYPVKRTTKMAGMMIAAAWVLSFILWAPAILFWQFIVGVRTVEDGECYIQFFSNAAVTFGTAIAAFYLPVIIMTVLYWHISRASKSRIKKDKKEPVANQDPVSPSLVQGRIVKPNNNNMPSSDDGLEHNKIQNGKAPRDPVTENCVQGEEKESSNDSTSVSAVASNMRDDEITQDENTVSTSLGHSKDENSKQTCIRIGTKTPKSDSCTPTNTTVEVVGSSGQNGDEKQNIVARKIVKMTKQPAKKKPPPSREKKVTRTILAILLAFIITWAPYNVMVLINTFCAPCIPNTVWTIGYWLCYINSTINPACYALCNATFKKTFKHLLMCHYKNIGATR
# assay-info: Antimuscarinic potency and subset specificity was characterised by its inhibition of the [3H]NMS Binding to Muscarinic acetylcholine receptor M2 subtype
Criterion: Ki strictly under 30 nM. Met: Yes. Not met: No.

INSERT INTO results (molecule, category) VALUES
  ('CCN(CC)CCCOC(=O)C(C)(c1ccccc1)C1CCCCC1 (stereo unspecified)', 'Yes'),
  ('CCN(CC)CCCCCOC(=O)C(C)(c1ccccc1)C1CCCCC1 (stereo unspecified)', 'No'),
  ('CN(C)CCCOC(=O)C(C)(c1ccccc1)C1CCCCC1 (stereo unspecified)', 'Yes'),
  ('CCN(CC)CCCCOC(=O)C(C)(c1ccccc1)C1CCCCC1 (stereo unspecified)', 'No'),
  ('CN(C)CCCCOC(=O)C(C)(c1ccccc1)C1CCCCC1 (stereo unspecified)', 'No'),
  ('CCN(CC)CCOC(=O)C(C)(c1ccccc1)C1CCCCC1 (stereo unspecified)', 'Yes');
